Values were extracted from ChEMBL document CHEMBL1143000.

Assay: Inhibition of HCV NS5B570n-BK RNA polymerase
Design: species or system Hepacivirus hominis
reported property: IC50 (µM)
Give bare numbers, in µM.

- [N-]=[N+]=N[C@]1(COP(=O)(O)OP(=O)(O)OP(=O)(O)O)O[C@@H](n2ccc(=O)[nH]c2=O)[C@@H](O)[C@H]1O: 0.23

Here's the next entry for you.
Query string: Consider the compound [N-]=[N+]=N[C@]1(COP(=O)(O)OP(=O)(O)OP(=O)(O)O)O[C@@H](n2ccc(N)nc2=O)[C@@H](O)[C@H]1O and give its measured IC50.
Result string: 0.29

====

Test: Inhibition of HCV NS5B570-Con1 RNA polymerase
Set-up: species or system Hepacivirus hominis
reported property: pIC50
Give bare numbers, as −log10 of the molar value.

• [N-]=[N+]=N[C@]1(COP(=O)(O)OP(=O)(O)OP(=O)(O)O)O[C@@H](n2ccc(=O)[nH]c2=O)[C@@H](O)[C@H]1O = 6.66

As a next step, examine the compound that follows.
Query string: Requested read-out: pIC50. Entry: [N-]=[N+]=N[C@]1(COP(=O)(O)OP(=O)(O)OP(=O)(O)O)O[C@@H](n2ccc(N)nc2=O)[C@@H](O)[C@H]1O
Result string: 6.49
